These entries and their values trace back to PubChem BioAssay AID1963446.

Let's look at some compounds and their measured pIC50.
Test system: 993429-296-R-J1-PDC complex spheroid growth, percent test/control;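 also: spheroids exposed to compounds for seven days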
protocol summary: Anticancer human tumor 993429-296-R-J1-PDC patient-derived uterine sarcoma cell line growth inhibition [Asc]
test conditions: curve of first compound; second compound 3 µM
When answering, recall that pIC50 equals minus log10 of the concentration in mol/L, and write that number alone.

Below, 7 compounds whose answers are already recorded.
compound="CNC(C)C(=O)NC1CN(S(=O)(=O)c2cccc(S(=O)(=O)N3CCC4CCC(C(=O)NC(c5ccccc5)c5ccccc5)N4C(=O)C(NC(=O)C(C)NC)C3)c2)CCC2CCC(C(=O)NC(c3ccccc3)c3ccccc3)N2C1=O (centres undefined) + CCN1C(C(=O)NC23CCC(C(=O)O)(CC2)CC3)C(c2cccc(Cl)c2F)C2(C(=O)Nc3cc(Cl)ccc32)C12CCCCC2" assay_result=6.54
compound="Cc1nc(N2CCC3(CC2)COC(C)C3N)c(CO)nc1Sc1ccnc(N)c1Cl (centres undefined) + CCN1C(C(=O)NC23CCC(C(=O)O)(CC2)CC3)C(c2cccc(Cl)c2F)C2(C(=O)Nc3cc(Cl)ccc32)C12CCCCC2" assay_result=6.98
compound="C=C(F)C(=O)N1CCN(c2nc(OCC3CCCN3C)nc3c2CCN(c2cccc4cccc(Cl)c24)C3)CC1CC#N (centres undefined) + CCN1C(C(=O)NC23CCC(C(=O)O)(CC2)CC3)C(c2cccc(Cl)c2F)C2(C(=O)Nc3cc(Cl)ccc32)C12CCCCC2" assay_result=5.80
compound="COc1c(OCCCN2CCOCC2)ccc2c3n(c(=NC(=O)c4cnc(N)nc4)nc12)CCN3 + CCN1C(C(=O)NC23CCC(C(=O)O)(CC2)CC3)C(c2cccc(Cl)c2F)C2(C(=O)Nc3cc(Cl)ccc32)C12CCCCC2" assay_result=7.66
compound="O=C(c1cc(Cc2n[nH]c(=O)c3ccccc23)ccc1F)N1CCN(C(=O)C2CC2)CC1 + CCN1C(C(=O)NC23CCC(C(=O)O)(CC2)CC3)C(c2cccc(Cl)c2F)C2(C(=O)Nc3cc(Cl)ccc32)C12CCCCC2" assay_result=5.52
compound="Cn1ncnc1[C@H]1c2n[nH]c(=O)c3cc(F)cc(c23)N[C@@H]1c1ccc(F)cc1 + CCN1C(C(=O)NC23CCC(C(=O)O)(CC2)CC3)C(c2cccc(Cl)c2F)C2(C(=O)Nc3cc(Cl)ccc32)C12CCCCC2" assay_result=7.18
compound="C#Cc1c(F)ccc2cc(O)cc(-c3ncc4c(N5CC6CCC(C5)N6)nc(OCC56CCCN5CC(F)C6)nc4c3F)c12 (centres undefined) + CCN1C(C(=O)NC23CCC(C(=O)O)(CC2)CC3)C(c2cccc(Cl)c2F)C2(C(=O)Nc3cc(Cl)ccc32)C12CCCCC2" assay_result=5.31

# next compound below
[Q] Can you share its pIC50? I mean this compound: NC(=O)C(=Cn1cnc(-c2cc(C(F)(F)F)cc(C(F)(F)F)c2)n1)c1cncnc1 + CCN1C(C(=O)NC23CCC(C(=O)O)(CC2)CC3)C(c2cccc(Cl)c2F)C2(C(=O)Nc3cc(Cl)ccc32)C12CCCCC2
[A] 7.88
